Parameter pIC50: see the listing below.
Target entity: PI3K (Homo sapiens, UniProt P48736)
Construct: PI3 Kinase γ IC50; other: PI3 Kinase γ; other: PI3 Kinase γ isoform, fluorescence polarization
Sequence (P48736 whole entry, canonical isoform): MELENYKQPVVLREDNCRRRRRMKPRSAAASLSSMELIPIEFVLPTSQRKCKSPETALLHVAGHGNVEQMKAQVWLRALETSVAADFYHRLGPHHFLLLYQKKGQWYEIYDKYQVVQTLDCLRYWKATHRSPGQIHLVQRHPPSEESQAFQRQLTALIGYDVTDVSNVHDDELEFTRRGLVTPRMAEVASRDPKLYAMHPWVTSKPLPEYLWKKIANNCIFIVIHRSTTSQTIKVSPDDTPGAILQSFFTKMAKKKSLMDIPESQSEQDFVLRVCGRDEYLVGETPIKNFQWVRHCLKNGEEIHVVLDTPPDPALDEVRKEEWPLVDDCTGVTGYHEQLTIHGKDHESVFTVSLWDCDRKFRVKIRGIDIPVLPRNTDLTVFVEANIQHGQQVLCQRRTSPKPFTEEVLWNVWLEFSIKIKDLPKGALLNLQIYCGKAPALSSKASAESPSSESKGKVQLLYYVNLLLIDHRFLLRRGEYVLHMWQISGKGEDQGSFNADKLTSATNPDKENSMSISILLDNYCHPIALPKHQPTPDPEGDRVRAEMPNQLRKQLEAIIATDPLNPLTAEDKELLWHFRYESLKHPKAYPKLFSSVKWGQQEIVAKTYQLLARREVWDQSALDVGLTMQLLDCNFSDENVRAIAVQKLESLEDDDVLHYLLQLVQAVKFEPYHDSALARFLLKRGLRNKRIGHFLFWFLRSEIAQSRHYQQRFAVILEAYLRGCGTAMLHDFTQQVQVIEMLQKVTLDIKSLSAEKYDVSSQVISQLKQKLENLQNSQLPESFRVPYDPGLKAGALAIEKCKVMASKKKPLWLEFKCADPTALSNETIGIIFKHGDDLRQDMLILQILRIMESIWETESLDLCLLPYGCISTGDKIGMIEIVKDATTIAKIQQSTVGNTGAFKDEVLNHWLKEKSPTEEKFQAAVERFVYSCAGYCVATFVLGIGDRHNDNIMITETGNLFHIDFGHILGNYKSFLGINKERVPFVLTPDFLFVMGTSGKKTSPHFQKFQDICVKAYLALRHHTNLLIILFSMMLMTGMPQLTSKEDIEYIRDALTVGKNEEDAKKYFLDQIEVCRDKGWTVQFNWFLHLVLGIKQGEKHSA
Assay details: Fluorescence polarization assay for PI3K
Assay type: biochemical
Cond: PI3 Kinase γ; read-out: PI3 Kinase γ IC50
// scale note: pIC50 = -log10(conc_M); give the bare number

CCn1ncc2c(N3CC4CCC(C3)O4)nc(-c3ccc(NC(=O)Nc4ccc(CCO)cc4)cc3)nc21 | 5.82
CN(C)CCNC(=O)Nc1ccc(-c2nc(N3CC4CCC(C3)O4)c3cnn(C)c3n2)cc1 | 5.95
CC(C)n1ncc2c(N3CC4CCC(C3)O4)nc(-c3ccc(NC(=O)NCCO)cc3)nc21 | 5.34
CCn1ncc2c(N3CC4CCC(C3)O4)nc(-c3ccc(NC(=O)Nc4ccc(NC)nc4)cc3)nc21 | 4.83
CC(C)(C)OC(=O)N1CCC(n2ncc3c(N4CC5CCC(C4)O5)nc(-c4ccc(NC(=O)Nc5ccncc5)cc4)nc32)CC1 | 5.78

Now for the molecule whose pIC50 we want.
Q: Given the molecule O=C(Nc1ccc(CCO)cc1)Nc1ccc(-c2nc(N3CC4CCC(C3)O4)c3cnn(CC(F)(F)F)c3n2)cc1 , write its reported pIC50.
Result: 6.36

====

Target entity: Human mTOR (FLAG-TOR) (Homo sapiens, UniProt P42345)
Construct: FLAG
Assay details: Human mTOR kinase assay with purified enzyme, DELFIA format
Assay type: biochemical
Cond: purified human mTOR enzyme, DELFIA format
Parameter pIC50: see the listing below.
// scale note: pIC50 = -log10(conc_M); give the bare number

Guide cases for pIC50, answers given:
CNC(=O)Nc1ccc(-c2nc(N3CC4CCC(C3)O4)c3cnn([C@H]4CC[C@H](O)CC4)c3n2)cc1 (relative stereo) | 9.61
O=C(Nc1ccc(-c2nc(N3CC4CCC(C3)O4)c3cnn(CC(F)(F)F)c3n2)cc1)Nc1ccc(N2CCNCC2)cc1 | 9.59
COC1CCC(n2ncc3c(N4CC5CCC(C4)O5)nc(-c4ccc(NC(=O)Nc5ccncc5)cc4)nc32)CC1 (stereo not shown) | 9.84
O=C(Nc1ccc(-c2nc(N3C[C@@H]4C[C@H]3CO4)c3cnn(CC(F)(F)F)c3n2)cc1)NC1CC1 | 8.73
CCn1nc(C(O)CO)c2c(N3CC4CCC(C3)O4)nc(-c3ccc(NC(=O)NC)cc3)nc21 (stereo not shown) | 8.05
COC(=O)N1CCC(n2ncc3c(N4C5CCC4COC5)nc(-c4ccc(NC(=O)NC5CC5)cc4)nc32)CC1 | 9.15

Now for the molecule whose pIC50 we want.
Q: Given the molecule COCC(COC)n1ncc2c(N3CC4CCC(C3)O4)nc(-c3ccc(NC(=O)Nc4ccncc4)cc3)nc21 , write its reported pIC50.
Result: 8.80

====

Target entity: Human mTOR (FLAG-TOR) (Homo sapiens)
Construct: FLAG
Assay details: Human mTOR kinase assay with purified enzyme, DELFIA format
Format: biochemical
Parameter pIC50: see the listing below.
// scale note: pIC50 = -log10(conc_M); give the bare number

Guide cases for pIC50, answers given:
O=C(Nc1ccc(-c2nc(N3CC4CCC(C3)O4)c3cnn(CCF)c3n2)cc1)OCCO | 8.92
CCn1ncc2c(N3CC4CCC(C3)O4)nc(-c3ccc(NC(=O)NCCN(C)C)cc3)nc21 | 7.28

Q: Given the compound CC(C)C(=O)N1CCC(n2ncc3c(N4CC5CCC(C4)O5)nc(-c4ccc(NC(=O)Nc5ccncc5)cc4)nc32)CC1 , write its reported pIC50.
Result: 9.59

Q: Given the compound COC(=O)Nc1ccc(-c2nc(N3CC4CCC(C3)O4)c3cnn(C)c3n2)cc1 , write its reported pIC50.
Result: 7.55

====

Target entity: PI3K (Homo sapiens)
Construct: PI3 Kinase γ IC50; other: PI3 Kinase γ; other: PI3 Kinase γ isoform, fluorescence polarization
Assay details: Fluorescence polarization assay for PI3K
Type: biochemical
Cond: PI3 Kinase γ; read-out: PI3 Kinase γ IC50
Description: This assay is used to determine the IC50 of compounds of the present invention as it identifies inhibitors of PI3 kinase by measuring inhibition. […] Stop/detector mix is prepared by mixing 4 μL Red detector and 1.6 μL or 2.0 μL GST-GRP with 1 mL Stop buffer, which results in 10 nM probe and 70 nM GST-GRP). […] The plates are read after 30-90 minutes keeping the red probe solutions dark. […] Plates are read on machines with filters for Tamra. […]
Parameter pIC50: see the listing below.
// scale note: pIC50 = -log10(conc_M); give the bare number

Guide cases for pIC50, answers given:
COC(=O)N1CCC(n2ncc3c(N4CC5CCC(C4)O5)nc(-c4ccc(NC(=O)NCCN5CCN(C)CC5)cc4)nc32)CC1 | 5.35
O=C(Nc1ccc(CO)cc1)Nc1ccc(-c2nc(N3CC4CCC(C3)O4)c3cnn(CCF)c3n2)cc1 | 6.02
COC(=O)N1CCC(n2ncc3c(N4CC5CCC(C4)O5)nc(-c4ccc(NC(=O)NCCN(C)C)cc4)nc32)CC1 | 5.26

Q: Using PI3K (Homo sapiens) as the test system, report measured pIC50 of N#CCCn1ncc2c(N3CC4CCC(C3)O4)nc(-c3ccc(NC(=O)Nc4ccncc4)cc3)nc21 .
Result: 6.46

Q: Using PI3K (Homo sapiens) as the test system, report measured pIC50 of CN1CCN(c2ccc(NC(=O)Nc3ccc(-c4nc(N5C6CCC5COC6)c5cnn(CC(F)(F)F)c5n4)cc3)cc2)CC1 .
Result: 5.02

Q: Using PI3K (Homo sapiens) as the test system, report measured pIC50 of O=C(Nc1ccc(CCO)cc1)Nc1ccc(-c2nc(N3C4CCC3COC4)c3cnn(CC(F)(F)F)c3n2)cc1 .
Result: 5.94

Q: Using PI3K (Homo sapiens) as the test system, report measured pIC50 of CCn1ncc2c(N3CC4CCC(C3)O4)nc(-c3ccc(NC(=O)Nc4ccc(N5CCNCC5)cc4)cc3)nc21 .
Result: 6.27

Q: Using PI3K (Homo sapiens) as the test system, report measured pIC50 of CCOC(=O)N1CCC(n2ncc3c(N4CC5CCC(C4)O5)nc(-c4ccc(NC(=O)NC5CCN(C)CC5)cc4)nc32)CC1 .
Result: 5.12

Q: Using PI3K (Homo sapiens) as the test system, report measured pIC50 of CC(C)(C)n1ncc2c(N3CC4CCC(C3)O4)nc(-c3ccc(NC(=O)Nc4ccncc4)cc3)nc21 .
Result: 6.14

Q: Using PI3K (Homo sapiens) as the test system, report measured pIC50 of CCOC(=O)N1CCC(n2ncc3c(N4CC5CCC(C4)O5)nc(-c4ccc(NC(=O)Nc5cccnc5)cc4)nc32)CC1 .
Result: 5.58

Q: Using PI3K (Homo sapiens) as the test system, report measured pIC50 of CCn1ncc2c(N3CC4CCC(C3)O4)nc(-c3ccc(NC(=O)NCCN(C)C)cc3)nc21 .
Result: 6.18

Q: Using PI3K (Homo sapiens) as the test system, report measured pIC50 of CN1CCN(c2ccc(NC(=O)Nc3ccc(-c4nc(N5C[C@@H]6C[C@H]5CO6)c5cnn(CC(F)(F)F)c5n4)cc3)cc2)CC1 .
Result: 5.33

====

Target entity: PI3K (Homo sapiens, UniProt P48736)
Construct: PI3 Kinase γ IC50; other: PI3 Kinase γ; other: PI3 Kinase γ isoform, fluorescence polarization
Assay details: Fluorescence polarization assay for PI3K
Type: biochemical
Cond: PI3 Kinase γ isoform, fluorescence polarization; read-out: PI3 Kinase γ IC50
Readout kind: IC50

Guide cases for IC50, answers given:
COC(=O)N1CCC(n2ncc3c(N4C5CCC4COC5)nc(-c4ccc(NC(=O)Nc5ccccc5)cc4)nc32)CC1 | 2.15 µM
COC1CCC(n2ncc3c(N4CC5CCC(C4)O5)nc(-c4ccc(NC(=O)Nc5ccc(C(N)=O)cc5)cc4)nc32)CC1 (stereo not shown) | 1.27 µM
Nc1ncc(-c2nc(N3CC4CCC(C3)O4)c3sccc3n2)cn1 | 9.18 µM
O=C(Nc1ccncc1)Nc1ccc(-c2nc(N3CC4CCC(C3)O4)c3cnn(C4CCC5(CCCO5)CC4)c3n2)cc1 (single isomer, unassigned) | 2.22 µM
COCC(COC)n1ncc2c(N3CC4CCC(C3)O4)nc(-c3ccc(NC(=O)NCCO)cc3)nc21 | > 10 µM

Now for the molecule whose IC50 we want.
Q: Given the molecule O=CN1CC2CN(c3nc(-c4ccc(NC(=O)Nc5ccncc5)cc4)nc4c3cnn4CC(F)(F)F)CC(C1)O2 , write its reported IC50.
Result: > 10 µM

====

Target entity: PI3K (Homo sapiens)
Construct: PI3 Kinase δ IC50; other: PI3 Kinase δ; other: PI3 Kinase δ isoform, fluorescence polarization
Assay details: Fluorescence polarization assay for PI3K
Format: biochemical
Cond: PI3 Kinase δ
Readout kind: pIC50
// scale note: pIC50 = -log10(conc_M); give the bare number

Guide cases for pIC50, answers given:
CN1CCN(c2ccc(NC(=O)Nc3ccc(-c4nc(N5CC6CCC(C5)O6)c5cnn(CC(F)(F)F)c5n4)cc3)cc2)CC1 | 6.02
O=C(Nc1ccc(-c2nc(N3CC4CCC(C3)O4)c3cnn(CC(F)(F)F)c3n2)cc1)OCCO | 4.92

Now for the compound whose pIC50 we want.
Q: Given the compound CNC(=O)Nc1ccc(-c2nc(N3CC4CCC(C3)O4)c3cnn(C4CCC5(CC4)OCCO5)c3n2)cc1 , write its reported pIC50.
Result: 5.62
